# Measured on: STS (Homo sapiens, UniProt P08842)
# Construct: can be assessed using either intact MCF-7 breast cancer cells or placental microsomes
# Sequence (P08842 22-583): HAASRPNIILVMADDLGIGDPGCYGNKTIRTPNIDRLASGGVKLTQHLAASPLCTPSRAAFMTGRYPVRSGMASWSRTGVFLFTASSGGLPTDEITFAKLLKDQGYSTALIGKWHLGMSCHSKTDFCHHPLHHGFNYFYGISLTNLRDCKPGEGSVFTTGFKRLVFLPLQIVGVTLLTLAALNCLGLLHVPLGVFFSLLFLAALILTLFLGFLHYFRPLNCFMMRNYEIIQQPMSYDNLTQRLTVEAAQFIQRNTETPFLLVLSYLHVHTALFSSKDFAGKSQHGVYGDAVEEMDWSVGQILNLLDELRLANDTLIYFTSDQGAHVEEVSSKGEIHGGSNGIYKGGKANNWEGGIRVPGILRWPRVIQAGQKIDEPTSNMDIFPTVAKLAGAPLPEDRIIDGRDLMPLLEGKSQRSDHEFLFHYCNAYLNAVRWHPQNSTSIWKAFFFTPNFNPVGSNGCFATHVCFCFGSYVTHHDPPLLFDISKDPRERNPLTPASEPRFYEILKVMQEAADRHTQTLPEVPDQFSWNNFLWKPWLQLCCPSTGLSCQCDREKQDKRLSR
# Assay info: biochemical
# Test settings: STS IC50 (nM), inhibition of E1S→E1; Table 1
Recorded metric: IC50 (nM)
State the answer as a number, implicitly in nM.

{"Compound": "CCCCN1C(=O)CC2C3CCc4cc(OS(N)(=O)=O)ccc4C3CC[C@]2(C)C1=O (stereo partly shown) [compound 283]", "Meas value": 382}

API: the following record is the query input.
Data point: CCCCCCN1C(=O)CC2C3CCc4cc(OS(N)(=O)=O)ccc4C3CC[C@]2(C)C1=O (stereo partly shown) [compound 282] ; IC50 = 288

###

# Measured on: E2DH Type I (HSD Type I) in T47D breast cancer cells (Homo sapiens)
# Construct: T47D breast cancer cells in which E2HSD Type I activity is abundant; endogenous in cells; host or cells: T47D breast cancer cells
# Sequence (P14061 2-328 limits assumed): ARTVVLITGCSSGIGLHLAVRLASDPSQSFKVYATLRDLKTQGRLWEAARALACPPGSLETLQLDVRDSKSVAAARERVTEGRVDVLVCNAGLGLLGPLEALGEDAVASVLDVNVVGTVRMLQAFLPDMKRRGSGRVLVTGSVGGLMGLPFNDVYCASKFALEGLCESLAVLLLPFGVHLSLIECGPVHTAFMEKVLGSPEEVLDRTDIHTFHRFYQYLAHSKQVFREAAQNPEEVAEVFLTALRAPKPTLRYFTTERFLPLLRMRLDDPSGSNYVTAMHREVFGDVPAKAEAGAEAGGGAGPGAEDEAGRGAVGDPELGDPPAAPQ
# Assay info: Conversion of oestrone to oestradiol in intact T47D cell monolayers (Protocol 7)
# Type: cell-based
# Test settings: T47D, measured at 10 μM, read-out: % Inhibition E1 → E2 ± SD (HSD Type I)
Recorded metric: inhibition at 10 µM (%)
State the answer as a number, implicitly in %.

Take a look at these entries with their results.
{"Compound": "C[C@]12CCC3c4ccc(O)cc4CCC3C1CC(=O)N(Cc1cccnc1)C2=O (stereo partly shown) [compound 234]", "Recorded metric": "inhibition at 10 µM", "Meas value": 25.8}
{"Compound": "C[C@]12CCC3c4ccc(OS(N)(=O)=O)cc4CCC3C1CC(=O)N(Cc1ccccc1)C2=O (stereo partly shown) [compound 236]", "Recorded metric": "inhibition at 10 µM", "Meas value": 20.4}
{"Compound": "CCCN1C(=O)CC2C3CCc4cc(O)ccc4C3CC[C@]2(C)C1=O (stereo partly shown) [compound 189]", "Recorded metric": "inhibition at 10 µM", "Meas value": 17}

API: the following record is the query input.
Data point: CC(C)(C)c1ccc(CN2C(=O)CC3C4CCc5cc(OS(N)(=O)=O)ccc5C4CC[C@]3(C)C2=O)cc1 (stereo partly shown) [compound 285] ; inhibition at 10 µM = 22.5
